# Tested on: HL-60
# Procedure Details: NCI tumour cell line growth inhibition, 48 h
Activity calls are given as the source filed them. Cut-off read from the data, not from the text of the source: active = GI50 up to about 1.1 µM and inactive = higher.
Allowed answers: active, inactive

Reference set (5 entries):
[
  {
    "Molecule": "CC(C)CCCC(=O)CCCCCCC(=O)CCN(O)C(=O)C(N)CO (configuration not stated)",
    "Study Target": "HL-60",
    "Answer Label": "inactive"
  },
  {
    "Molecule": "O=C(NCc1ccccc1)c1cc2ccccc2o/c1=N\\c1cccc(C(F)(F)F)c1",
    "Study Target": "HL-60",
    "Answer Label": "inactive"
  },
  {
    "Molecule": "COc1ccc(P2(=S)SP(=S)(c3ccc(Cl)cc3)S2)cc1 (configuration not stated)",
    "Study Target": "HL-60",
    "Answer Label": "inactive"
  },
  {
    "Molecule": "O=C1/C(=C/c2ccc(Cl)cc2)N=C(c2ccccc2)N1c1nc2ccccc2s1",
    "Study Target": "HL-60",
    "Answer Label": "inactive"
  },
  {
    "Molecule": "O=[N+]([O-])c1cc2ccc(N(CCO)CCO)nc2nc1N(CCO)CCO",
    "Study Target": "HL-60",
    "Answer Label": "inactive"
  }
]

We next turn to a different molecule, shown below.
Task: Given Cc1[nH]c(O)nc1C(=O)c1ccc(-n2ccnc2)cc1 , state the outcome it received in this test.
Output: inactive
